What follows is a record of MIC for Staphylococcus aureus KCTC 1621.
Report only the number, with the unit µM understood.

Take a look at these entries with their results.
CC[C@H](C)[C@H](NC(=O)[C@H](CCCCN)NC(=O)[C@H](CCCCN)NC(=O)[C@H](Cc1ccccc1)NC(=O)[C@H](CC(C)C)NC(=O)[C@H](CCCCN)NC(=O)[C@H](C)NC(=O)[C@@H](N)CCCCN)C(=O)N1CCC[C@H]1C(=O)N[C@@H](CCCCN)C(=O)N[C@@H](Cc1ccccc1)C(=O)N[C@@H](CC(C)C)C(=O)N[C@@H](Cc1cnc[nH]1)C(=O)N[C@@H](CC(C)C)C(=O)N[C@@H](Cc1c[nH]c2ccccc12)C(=O)N[C@@H](CCCCN)C(=O)N[C@@H](CCCCN)C(=O)N[C@@H](Cc1ccccc1)C(N)=O = 2
CC[C@H](C)[C@H](NC(=O)CNC(=O)[C@H](CC(C)C)NC(=O)[C@H](CCCN=C(N)N)NC(=O)[C@H](CCCCN)NC(=O)[C@H](Cc1ccccc1)NC(=O)[C@@H](NC(=O)[C@H](CCCCN)NC(=O)[C@H](CCCCN)NC(=O)[C@H](C)N)C(C)C)C(=O)NCC(=O)N[C@@H](C)C(=O)N[C@H](C(=O)N[C@@H](CC(C)C)C(=O)N[C@@H](Cc1c[nH]c2ccccc12)C(=O)N[C@H](C(=O)N[C@@H](CC(C)C)C(=O)N[C@H](C(=O)N[C@@H](Cc1c[nH]c2ccccc12)C(=O)NCC(=O)O)[C@@H](C)O)C(C)C)C(C)C = 3.12
CC(C)C[C@H](NC(=O)[C@H](CC(C)C)NC(=O)[C@H](CS)NC(=O)[C@H](Cc1cnc[nH]1)NC(=O)[C@H](C)NC(=O)[C@H](C)N)C(=O)N[C@@H](CCCN=C(N)N)C(=O)NCC(=O)N[C@@H](CC(N)=O)C(=O)N[C@@H](CCCN=C(N)N)C(N)=O [AAHCLLRGNR] = 30
CC[C@H](C)[C@H](NC(=O)[C@H](CCCN=C(N)N)NC(=O)[C@H](CC(C)C)NC(=O)[C@H](CC(C)C)NC(=O)[C@@H](N)CCCN=C(N)N)C(=O)N[C@@H](Cc1c[nH]c2ccccc12)C(=O)N[C@@H](Cc1c[nH]c2ccccc12)C(=O)N[C@H](C(=O)N[C@@H](CCCN=C(N)N)C(=O)N[C@H](C(=O)N[C@@H](CC(C)C)C(=O)N[C@@H](CCCN=C(N)N)C(N)=O)C(C)C)[C@@H](C)CC = 7.44

// below: MIC requested for another compound
// query # query: MIC of entry CC[C@H](C)[C@H](NC(=O)[C@H](CC(C)C)NC(=O)[C@H](CCCCN)NC(=O)[C@@H](NC(=O)[C@@H](NC(=O)[C@H](CCCN=C(N)N)NC(=O)[C@@H](N)CC(C)C)[C@@H](C)CC)C(C)C)C(=O)N[C@@H](CC(C)C)C(=O)N[C@@H](CCCCN)C(=O)N[C@@H](Cc1c[nH]c2ccccc12)C(=O)N[C@@H](CC(C)C)C(=O)N[C@@H](CCCN=C(N)N)C(N)=O
// result 4

----------
- System: Pseudomonas aeruginosa KCTC 1637
- protocol text: ≥ marks a high value that may be exact or a test limit, other limits are often not marked, values filed in µg/mL are converted to µM
endpoint name: MIC (µM)
Report only the number, with the unit µM understood.

// query # query: MIC of entry CC(C)C[C@H](NC(=O)[C@H](CC(C)C)NC(=O)[C@H](CS)NC(=O)[C@H](Cc1cnc[nH]1)NC(=O)[C@H](C)NC(=O)[C@H](C)N)C(=O)N[C@@H](CCCN=C(N)N)C(=O)NCC(=O)N[C@@H](CC(N)=O)C(=O)N[C@@H](CCCN=C(N)N)C(N)=O [AAHCLLRGNR]
// result 30

----------
Form field: MIC (one value per entry).
- System: Pseudomonas aeruginosa ATCC 27853
- protocol text: ≥ marks a high value that may be exact or a test limit, other limits are often not marked, values filed in µg/mL are converted to µM
Report only the number, with the unit µM understood.

CC[C@H](C)[C@H](NC(=O)[C@H](CCCN=C(N)N)NC(=O)CNC(=O)[C@@H](NC(=O)[C@@H]1CCCN1C(=O)[C@H](Cc1ccccc1)NC(=O)[C@H](CCC(N)=O)NC(=O)[C@H](CC(C)C)NC(=O)CNC(=O)[C@H](C)N)C(C)C)C(=O)NCC(=O)N[C@@H](CCCN=C(N)N)C(=O)N[C@@H](CC(C)C)C(=O)N[C@@H](CC(C)C)C(=O)N[C@@H](CCCN=C(N)N)C(=O)N[C@@H](CCCCN)C(=O)O = 12.5

// below: MIC requested for another compound
// query # query: MIC of entry CC(C)[C@H](NC(=O)[C@@H](NC(=O)[C@H](CCCN=C(N)N)NC(=O)[C@H](CCCN=C(N)N)NC(=O)[C@H](Cc1c[nH]c2ccccc12)NC(=O)[C@H](Cc1c[nH]c2ccccc12)NC(=O)CN)[C@@H](C)O)C(=O)N[C@@H](CCCN=C(N)N)C(=O)N[C@@H](CCCCN)C(N)=O
// result 25

----------
Form field: MIC (one value per entry).
- Test system: Pseudomonas aeruginosa PAO1
- protocol text: ≥ marks a high value that may be exact or a test limit, other limits are often not marked, values filed in µg/mL are converted to µM
Report only the number, with the unit µM understood.

CC[C@H](C)[C@H](NC(=O)[C@H](CCCCN)NC(=O)[C@H](CCCCN)NC(=O)[C@H](Cc1ccccc1)NC(=O)[C@H](CC(C)C)NC(=O)[C@H](CCCCN)NC(=O)[C@H](Cc1c[nH]c2ccccc12)NC(=O)[C@@H](N)CCCCN)C(=O)NCC(=O)N[C@@H](C)C(=O)N[C@H](C(=O)N[C@@H](CC(C)C)C(=O)N[C@@H](CCCCN)C(=O)N[C@@H](CCCCN)C(=O)N[C@@H](CC(C)C)C(=O)O)C(C)C = 2.83

// query # query: MIC of entry CC[C@H](C)[C@H](NC(=O)[C@H](CCCN=C(N)N)NC(=O)[C@H](Cc1c[nH]c2ccccc12)NC(=O)[C@H](CC(C)C)NC(=O)[C@@H](N)CCCN=C(N)N)C(=O)N[C@H](C(=O)N[C@H](C(=O)N[C@H](C(=O)N[C@@H](CCCN=C(N)N)C(=O)N[C@H](C(=O)N[C@@H](CCCCN)C(=O)N[C@@H](CCCN=C(N)N)C(N)=O)C(C)C)[C@@H](C)CC)C(C)C)C(C)C
// result 16

----------
What follows is a record of MIC for Klebsiella pneumoniae ATCC 13883.
Report only the number, with the unit µM understood.

Take a look at these entries with their results.
CC[C@H](C)[C@H](NC(=O)[C@H](CCCCN)NC(=O)[C@H](CCCCN)NC(=O)[C@H](Cc1ccccc1)NC(=O)[C@H](CC(C)C)NC(=O)[C@H](CCCCN)NC(=O)[C@H](Cc1c[nH]c2ccccc12)NC(=O)[C@H](CCCCN)NC(=O)[C@H](Cc1cnc[nH]1)NC(=O)[C@@H](NC(=O)[C@@H](N)C(C)C)[C@@H](C)CC)C(=O)NCC(=O)N[C@@H](C)C(=O)N[C@H](C(=O)N[C@@H](CC(C)C)C(=O)N[C@@H](CCCCN)C(=O)N[C@H](C(=O)N[C@@H](CC(C)C)C(=O)O)C(C)C)C(C)C = 30
CC[C@H](C)[C@@H]1NC(=O)CNC(=O)[C@H](CCCN=C(N)N)NC(=O)[C@H](Cc2ccc(O)cc2)NC(=O)[C@H](C)NC(=O)[C@H](C(C)C)NC(=O)[C@H](CCCN=C(N)N)NC(=O)[C@H](Cc2ccccc2)NC(=O)[C@@H](NC(=O)[C@H](Cc2c[nH]c3ccccc23)NC(=O)[C@@H](N)CCCCN)CSSC[C@@H](C(=O)N[C@@H](CCCN=C(N)N)C(=O)O)NC(=O)[C@H](CCCN=C(N)N)NC(=O)[C@H](CCCN=C(N)N)NC(=O)[C@H](Cc2ccc(O)cc2)NC(=O)[C@H](C)NC1=O = 0.113
CC(C)C[C@H](NC(=O)[C@H](C)NC(=O)[C@H](CCCCN)NC(=O)CNC(=O)[C@H](CC(C)C)NC(=O)[C@H](C)NC(=O)[C@H](CCCCN)NC(=O)[C@H](CC(C)C)NC(=O)[C@H](C)NC(=O)[C@H](CO)NC(=O)[C@H](CC(C)C)NC(=O)[C@H](C)NC(=O)CN)C(N)=O = 25
CC(C)C[C@H](NC(=O)[C@H](CC(C)C)NC(=O)[C@H](CCCCN)NC(=O)CNC(=O)[C@H](CC(C)C)NC(=O)[C@H](CC(C)C)NC(=O)[C@H](CO)NC(=O)[C@H](C)NC(=O)[C@H](CC(C)C)NC(=O)[C@H](CO)NC(=O)[C@H](CC(C)C)NC(=O)[C@H](CC(C)C)NC(=O)CN)C(N)=O = 3.1

// below: MIC requested for another compound
// query State its MIC on Klebsiella pneumoniae ATCC 13883: CC(C)C[C@H](NC(=O)[C@H](C)NC(=O)[C@H](CCCN=C(N)N)NC(=O)[C@H](CCCN=C(N)N)NC(=O)[C@H](Cc1ccccc1)NC(=O)[C@H](C)NC(=O)[C@H](Cc1c[nH]c2ccccc12)NC(=O)CNC(=O)[C@H](CCCN=C(N)N)NC(=O)[C@@H](N)CCCN=C(N)N)C(=O)N[C@@H](C)C(=O)N[C@@H](Cc1ccc(O)cc1)C(=O)NCC(=O)N[C@@H](CCCN=C(N)N)C(=O)N[C@@H](CCCN=C(N)N)C(N)=O
// result 30
